Cited source: PubChem BioAssay (EPA / NIEHS)

- Read-out: X-box binding protein 1 (XBP1), XBP1 (gene 7494)
- METHOD DESCRIPTION: LTEA_HepaRG_XBP1: Life Technologies and Expression Analysis (LTEA) Assay for X-box binding protein 1 (XBP1) using HepaRG (AID 2283540)
- SETTINGS: mRNA level, 48 h; actives raise or lower the signal
Active and inactive are the calls of the source. The calls were made as follows: active = hit-call score of the fitted dose curve at least 0.9, where 1 is the maximum; inactive = score below 0.9.
// classify into active, inactive

MOLECULE	QUALITATIVE LABEL
CC1=C(C(=O)Nc2ccccc2)SCCO1	inactive
COC(=O)c1ccccc1C(=O)OC	inactive
CON(C)C(=O)Nc1ccc(Cl)c(Cl)c1	inactive
Fc1ccc(Oc2ccnc3cc(Cl)cc(Cl)c23)cc1	inactive
Cc1ccc(-c2c(Cl)nc(C#N)n2S(=O)(=O)N(C)C)cc1	active
CC(C)(C)c1ccc(CSc2cnn(C(C)(C)C)c(=O)c2Cl)cc1	active
COP(N)(=O)SC (configuration not stated)	inactive
COc1ccc(C(c2ccc(OC)cc2)C(Cl)(Cl)Cl)cc1	inactive

// param item: Cc1c(F)c(F)c(COC(=O)C2C(/C=C(\Cl)C(F)(F)F)C2(C)C)c(F)c1F (configuration not stated) ; yields the recorded call
inactive

// param item: C=CCC1=C(C)C(OC(=O)C2C(C=C(C)C)C2(C)C)CC1=O (configuration not stated) ; yields the recorded call
inactive

// param item: CCOC(=O)CC(SP(=S)(OC)OC)C(=O)OCC (configuration not stated) ; yields the recorded call
inactive

// param item: `CO/C=C(/C(=O)OC)c1ccccc1Oc1cc(Oc2ccccc2C#N)ncn1` ; yields the recorded call
inactive

====

- Read-out: ATP-citrate lyase (ACLY), ACLY (gene 47)
- METHOD DESCRIPTION: LTEA_HepaRG_ACLY: Life Technologies and Expression Analysis (LTEA) Assay for ATP-citrate lyase (ACLY) using HepaRG (AID 2283466)
- SETTINGS: mRNA level, 48 h; actives raise or lower the signal
Active and inactive are the calls of the source. The calls were made as follows: active = hit-call score of the fitted dose curve at least 0.9, where 1 is the maximum; inactive = score below 0.9.
// classify into 1 (yes) for active, 0 (no) for inactive

See these solved cases before continuing.
COMPOUND	QUALITATIVE LABEL
COC(=O)N(OC)c1ccccc1COc1ccn(-c2ccc(Cl)cc2)n1	0 (no)
COP(=S)(OC)Oc1nc(Cl)c(Cl)cc1Cl	0 (no)

// param item: `Oc1ccccc1-c1ccccc1` ; yields the recorded call
0 (no)

// param item: CC(C)C1(C)N=C(c2nc3ccccc3cc2C(=O)O)NC1=O (centres undefined) ; yields the recorded call
0 (no)

// param item: `O=C(Nc1ccccc1)Nc1ccnc(Cl)c1` ; yields the recorded call
1 (yes)

// param item: `Cc1ccc(-c2c(Cl)nc(C#N)n2S(=O)(=O)N(C)C)cc1` ; yields the recorded call
1 (yes)

// param item: `CC1=C(C(=O)Nc2ccccc2)SCCO1` ; yields the recorded call
0 (no)

// param item: OC(c1ccc(Cl)cc1)(c1cncnc1)c1ccccc1Cl (centres undefined) ; yields the recorded call
1 (yes)

====

- METHOD DESCRIPTION: ATG_TA_CIS: Attagene CIS-FACTORIAL HepG2 Assay for human TA Basal Promoter (AID 2282964)
- SETTINGS: HepG2 Attagene CIS-factorial TA basal promoter reporter; actives raise or lower the signal
Activity calls are given as the source filed them. How the source made its calls: active means hit-call score of the fitted dose curve at least 0.9, where 1 is the maximum; inactive means score below 0.9.
// classify into active, inactive

// param item: C=CC1(C)OC(=O)N(c2cc(Cl)cc(Cl)c2)C1=O (centres undefined) ; yields the recorded call
inactive

// param item: `O=C(O)c1nc(Cl)ccc1Cl` ; yields the recorded call
inactive

// param item: `COP(=S)(OC)Oc1nc(Cl)c(Cl)cc1Cl` ; yields the recorded call
inactive

// param item: CCCCC(CC)COC(=O)c1ccccc1C(=O)OCC(CC)CCCC (centres undefined) ; yields the recorded call
inactive

// param item: `CCOc1cc(Oc2ccc(C(F)(F)F)cc2Cl)ccc1[N+](=O)[O-]` ; yields the recorded call
inactive

// param item: `CC(C)Oc1cc(-n2nc(C(C)(C)C)oc2=O)c(Cl)cc1Cl` ; yields the recorded call
inactive

// param item: `CCNc1nc(Cl)nc(NCC)n1` ; yields the recorded call
inactive

// param item: `COc1nc(C)nc(NC(=O)NS(=O)(=O)c2ccccc2Cl)n1` ; yields the recorded call
inactive

// param item: CCON=C(CC)C1=C(O)CC(c2c(C)cc(C)cc2C)CC1=O (centres undefined) ; yields the recorded call
inactive

// param item: `CS/C(C)=N/OC(=O)N(C)SN(C)C(=O)O/N=C(\C)SC` ; yields the recorded call
inactive

// param item: `CCNc1nc(Cl)nc(NC(C)C)n1` ; yields the recorded call
inactive

// param item: `CCCN(CCC)c1c([N+](=O)[O-])cc(S(N)(=O)=O)cc1[N+](=O)[O-]` ; yields the recorded call
inactive

// param item: COC(=O)C(C)Oc1ccc(Oc2ccc(Cl)cc2Cl)cc1 (centres undefined) ; yields the recorded call
inactive

// param item: `O=C(O)COc1nc(Cl)c(Cl)cc1Cl` ; yields the recorded call
inactive

// param item: `Oc1ccccc1-c1ccccc1` ; yields the recorded call
inactive

// param item: N#CC(CCc1ccc(Cl)cc1)(Cn1cncn1)c1ccccc1 (centres undefined) ; yields the recorded call
active

// param item: `CC1=C(C(=O)Nc2ccccc2)SCCO1` ; yields the recorded call
inactive

// param item: `C=CCC1=C(C)[C@@H](OC(=O)[C@@H]2[C@@H](C=C(C)C)C2(C)C)CC1=O` ; yields the recorded call
inactive

// param item: `CNC(=S)S` ; yields the recorded call
inactive
